# assay.remarks: qHTS assay for measurement of the activity of small molecule inhibitors on Zika virus induced Caspase-3 activity in human astrocytoma cells (AID 1224859)
# recorded.conditions: SNB-19 ZIKV-induced caspase-3/7, luminescence, 6 h; series mostly up to 45.7 µM
# Description: National Center for Advancing Translational Sciences [NCATS] Johns Hopkins University School of Medicine […] The medium for SNB-19 cells is composed of RPMI 1640 (ATCC, Cat.# 30-2001), 10% fetal bovine serum (FBS) (GE healthcare Life Sciences, Cat.# SH30071.03), and 1% Pen/Strep (Gibco, Cat.# 15140-122). […] The luminescence intensity of the assay plates was measured using a ViewLux plate reader (PerkinElmer). […]
Activity calls are given as the source filed them. The call rests on the fitted dose curve; in most records, active means well fitted inhibition curve with a large enough effect; inconclusive means small, poorly fitted or top-dose-only effect; inactive means no such curve, though single readings can be large or run the other way.
property.label: outcome

Example cases with answers are listed next.
# compound, outcome
data = [
    ("Cn1c(N2CCCCS2(=O)=O)nc(C(=O)NCc2ccc(F)cc2)c(O)c1=O", "inactive"),
    ("CCOC(=O)C1=C(N)Oc2ccc(Br)cc2C1C(C#N)C(=O)OCC (configuration not stated)", "inactive"),
    ("CC1(C)O[C@H]2C[C@@H]3[C@H]4CCC5=CC(=O)C=C[C@]5(C)[C@@]4(F)[C@@H](O)C[C@]3(C)[C@]2(C(=O)CO)O1", "inactive"),
    ("COc1ccc(C2CC(c3ccccc3)=NN2c2ccc(S(N)(=O)=O)cc2)cc1 (configuration not stated)", "inactive"),
    ("CC(=O)CCCCn1c(=O)c2c(ncn2C)n(C)c1=O", "inactive"),
]

Input: Quick one: outcome for CCOC(CN1C(=O)[C@](CC(=O)Nc2ccc(C)cc2)(NC(=O)Nc2ccc(C)cc2)c2ccccc21)OCC ?
Output: inactive

Input: Quick one: outcome for CCCCCCCCCCCC1=C(O)C(=O)C=C(O)C1=O ?
Output: inactive

Input: Quick one: outcome for Cc1cnc(C(=O)O)c[n+]1[O-] ?
Output: inactive

Input: Quick one: outcome for CCN(CC)C(=O)c1ccc(O)c(OC)c1 ?
Output: inactive

Input: Quick one: outcome for Cn1cc(C=C2C(=O)Nc3cccnc32)c2ccccc21 ?
Output: inactive

Input: Quick one: outcome for Cc1ccc(Nc2cc(-c3cccc(N4C(=O)c5ccccc5C4=O)c3)ncn2)cc1NS(C)(=O)=O ?
Output: inactive

Input: Quick one: outcome for Cc1ccc(/C=N/NC(=O)c2ccccc2Oc2ccccc2)o1 ?
Output: inactive

Input: Quick one: outcome for O=C(Nc1ccccc1Br)N[C@@H]1CCN(c2ccc(C(F)(F)F)cn2)C1 ?
Output: inactive

Input: Quick one: outcome for Cc1ccc(C(C)(O)c2nc3ccccc3s2)c(C)c1 (configuration not stated) ?
Output: inactive

Input: Quick one: outcome for COc1ccc2c(Oc3ccc(NC(=O)c4c(C)n(CC(C)(C)O)n(-c5ccccc5)c4=O)nc3)ccnc2c1 ?
Output: inactive

Input: Quick one: outcome for CCN(CC)CCOC(=O)c1ccc(N)cc1 ?
Output: inactive

Input: Quick one: outcome for COc1cccc2c1CCCC2CCCN1CCN(C2CCCCC2)CC1 (configuration not stated) ?
Output: inactive

Input: Quick one: outcome for COc1ccc2cccc(CCNC(C)=O)c2c1 ?
Output: inactive

Input: Quick one: outcome for CO[C@H]1C=CC=C(C)C(=O)NC2=CC(=O)C(NCCN(C)C)=C(C[C@@H](C)C[C@H](OC)[C@@H](O)[C@@H](C)C=C(C)[C@@H]1OC(N)=O)C2=O ?
Output: inactive

Input: Quick one: outcome for CN(C)Cc1cccc(N=C(c2ccccc2)c2c(O)[nH]c3cc(C(=O)N(C)C)ccc23)c1 ?
Output: inactive

Input: Quick one: outcome for O=C(O)C=Cc1ccc(O)c(O)c1 ?
Output: inactive

Input: Quick one: outcome for COc1cccc([C@@H](C)NCCCc2ccccc2Cl)c1 ?
Output: inactive

Cited source for all entries: PubChem BioAssay (NCATS)
